These measurements were taken from ChEMBL document CHEMBL1137637.

Experimental Target: Farnesyltransferase, putative (Leishmania major, UniProt Q4Q5W4)
Sequence (Q4Q5W4 whole entry): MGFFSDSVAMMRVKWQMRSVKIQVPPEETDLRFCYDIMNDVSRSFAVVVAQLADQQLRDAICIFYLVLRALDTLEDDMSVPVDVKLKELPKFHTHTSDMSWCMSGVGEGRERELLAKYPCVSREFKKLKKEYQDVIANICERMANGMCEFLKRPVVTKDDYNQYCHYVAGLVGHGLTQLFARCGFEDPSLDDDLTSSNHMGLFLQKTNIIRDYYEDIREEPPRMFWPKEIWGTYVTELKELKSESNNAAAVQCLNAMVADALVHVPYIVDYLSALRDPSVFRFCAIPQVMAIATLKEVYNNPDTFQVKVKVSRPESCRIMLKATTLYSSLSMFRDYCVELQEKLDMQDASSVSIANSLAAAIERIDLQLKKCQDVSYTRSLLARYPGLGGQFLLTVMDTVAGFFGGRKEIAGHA
Assay Remarks: Inhibition of Leishmania major recombinant squalene synthase expressed in Escherichia coli by liquid scintillation counter
Measure Name: IC50

> print(dat)
                                    compound    result
 1             O=Cc1ccc(/C=C2\CN3CCC2CC3)cc1    > 1 µM
 2     C(=C1/CN2CCC1CC2)/c1ccc(-c2ccccc2)cc1    > 1 µM
 3              C1=C(c2cc3ccccc3s2)C2CCN1CC2    > 1 µM
 4           CCOC(=O)c1ccc(C2=CN3CCC2CC3)cc1   0.18 µM
 5  OC1(c2ccc(-c3ccccc3)cc2)CN2CCC1CC2 (stereo not drawn)  0.013 µM
 6  COCCCOc1ccc(C#C[C@@]2(O)CN3CCC2CC3)c(Cc2ccccc2)n1  0.033 µM
 7          C(=C1/CN2CCC1CC2)/c1ccc2ccccc2c1    > 1 µM
 8  c1ccc(CC2CN3CCC2CC3)cc1 (stereo not drawn)    > 1 µM
 9       C(=C1/CN2CCC1CC2)/c1ccc(C2OCCO2)cc1    > 1 µM
10           COc1ccc2cc(C3=CN4CCC3CC4)ccc2c1   0.49 µM
11  Nc1ccc(C#CC2(O)CN3CCC2CC3)cn1 (stereo not drawn)    > 1 µM
12  CCOC(=O)c1ccc(C#CC2(O)CN3CCC2CC3)cc1 (stereo not drawn)   4.25 µM
13             C1=C(c2cnc3ccccc3c2)C2CCN1CC2    > 1 µM

###

Test system: L6
Assay Remarks: Cytotoxicity against rat L6 cells after 72 hrs by resazurin assay
Format: cell-based
Conditions Used: L6, 72 h
pIC50: −log10 of the molar value.
Recorded pIC50 values for a group of compounds are listed next.
Measure Name: pIC50

> print(dat)
                                    compound  inequality.sign  measured.number
 1       C(=C1/CN2CCC1CC2)/c1ccc(C2OCCO2)cc1                =             3.87
 2  OC[C@@H]1CC2CCN1C[C@@H]2C#Cc1ccc(-c2ccccc2)cc1 (stereo partly specified)                =             4.97
 3  COc1cc([C@@H]2c3cc4c(cc3[C@H](O)[C@H]3COC(=O)[C@H]23)OCO4)cc(OC)c1OC                =             7.85
 4  CCCCCCOc1ccc(C#CC2(O)CN3CCC2CC3)cc1 (stereo unspecified)                =             4.80
 5  OC1(C#Cc2ccc(Cl)nc2)CN2CCC1CC2 (stereo unspecified)                <             3.47
 6  OC[C@H]1CC2CCN1C[C@@H]2C#Cc1cnc2ccccc2c1 (stereo partly specified)                =             4.41
 7  COc1ccc(COc2ccc(C#CC3(O)CN4CCC3CC4)cc2)cc1OC (stereo unspecified)                =             4.10
 8  CCOC(=O)Cc1ccc(C#C[C@H]2CN3CCC2C[C@H]3CO)cc1 (stereo partly specified)                =             3.81
 9  OC[C@@H]1CC2CCN1C[C@@H]2C#Cc1cnc2ccccc2c1 (stereo partly specified)                =             3.77
10        CC(C)OC(=O)c1ccc(C2=CN3CCC2CC3)cc1                =             3.82
11  Cc1cc(C)cc(C#CC2(O)CN3CCC2CC3)c1 (stereo unspecified)                =             3.76
